Test system: RS4;11 leukaemia tumour line
Test: In vitro cytotoxicity, Microculture Tetrazolium Assay (MTT)
Assay type: cell-based
Conditions: Homo sapiens; RS4;11 cells, 48 hours exposure
Protocol: The cytotoxicity studies were carried out on the RS4;11 leukaemia tumour line. The cells are distributed onto microplates and exposed to the test compounds for 48 hours. The cell viability is then quantified by a colorimetric assay, the Microculture Tetrazolium Assay (Cancer Res., 1987, 47, 939-942).
Where a name gives a salt, the structure may show the parent alone.

| Compound | Study System | IC50, nM |
| --- | --- | --- |
| CN1CCN(C[C@@H]2Cc3ccccc3CN2C(=O)c2cc3c(cc2-n2cc(C(=O)N(c4ccc(O)cc4)c4ccc5c(c4)CCN5)c4ccccc42)OCO3)CC1 [Example 47] | RS4;11 leukaemia tumour line | 50.3 |
| COc1cc(-n2cc(C(=O)N(c3ccccc3)c3ccc(O)cc3)c3ccccc32)c(C(=O)N2Cc3ccccc3C[C@H]2CN2CCN(C)CC2)cc1O [Example 165, dihydrochloride] | RS4;11 leukaemia tumour line | 179 |
| CN1CCN(C[C@@H]2Cc3ccccc3CN2C(=O)c2ccc(Cl)cc2-n2cc(C(=O)N(c3ccc(O)cc3)c3ccc4c(ccn4C)c3)c3ccccc32)CC1 [Example 93] | RS4;11 leukaemia tumour line | 75.4 |
| COc1ccc(N(C(=O)c2cn(-c3cc4c(cc3C(=O)N3Cc5ccccc5C[C@H]3CN3CCN(C)CC3)OCO4)c3ccccc23)c2ccc(O)cc2)cc1 [Example 49] | RS4;11 leukaemia tumour line | 136 |
| CN1CCN(C[C@@H]2Cc3ccccc3CN2C(=O)c2cc3c(cc2-n2cc(C(=O)N(c4ccc(O)cc4)c4ccc5c(ccn5C)c4)c4ccccc42)OCO3)CC1 [Example 45] | RS4;11 leukaemia tumour line | 36.5 |

* * *

molecular target: Bcl-2 protein (histag-Bcl-2, UniProtKB P10415) (Homo sapiens (Human), UniProt P10415); assay: Inhibition of Bcl-2 by the fluorescence polarisation technique; assay type: binding; details: fluorescence polarisation test; method A, or method B where underlined (underlining not visible); read-out: IC50 (nM) Bcl-2 FP
Sequence (P10415 whole entry): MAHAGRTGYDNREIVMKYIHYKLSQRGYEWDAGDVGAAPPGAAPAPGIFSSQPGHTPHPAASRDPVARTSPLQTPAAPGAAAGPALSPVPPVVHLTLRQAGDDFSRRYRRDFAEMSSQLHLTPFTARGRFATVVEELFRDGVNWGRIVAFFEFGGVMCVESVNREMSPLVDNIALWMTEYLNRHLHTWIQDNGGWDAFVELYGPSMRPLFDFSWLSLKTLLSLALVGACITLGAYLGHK
Counter-ions that a name gives are not always drawn.
Measured Property: IC50 (nM)

| Compound | Study System | Measured Property | Quantity Unit | Value Observed |
| --- | --- | --- | --- | --- |
| Cc1cc(C(=O)N(c2ccc(O)cc2)c2ccc(F)cc2)cn1-c1cc2c(cc1C(=O)N1Cc3ccccc3C[C@H]1CN1CCN(C)CC1)OCO2 | Bcl-2 protein (histag-Bcl-2, UniProtKB P10415) (Homo sapiens (Human), UniProt P10415) | IC50 | nM | 6.7 |
| Cc1cc(C(=O)N(c2ccc(O)cc2)c2ccc(O)cc2)cn1-c1cc2c(cc1C(=O)N1Cc3ccccc3C[C@H]1CN1CCN(C)CC1)OCO2 | Bcl-2 protein (histag-Bcl-2, UniProtKB P10415) (Homo sapiens (Human), UniProt P10415) | IC50 | nM | 3.7 |
| CN1CCN(C[C@@H]2Cc3ccccc3CN2C(=O)c2cc3c(cc2-n2cc(C(=O)N(c4ccc(O)c(F)c4)c4ccc5c(ccn5C)c4)c4ccccc42)OCO3)CC1 [Example 97, hydrochloride] | Bcl-2 protein (histag-Bcl-2, UniProtKB P10415) (Homo sapiens (Human), UniProt P10415) | IC50 | nM | 6.1 |
| Cc1cc(C(=O)N(c2ccc(O)cc2)c2ccc(Cl)cc2)cn1-c1cc(Cl)ccc1C(=O)N1Cc2ccccc2C[C@H]1CN1CCN(C)CC1 | Bcl-2 protein (histag-Bcl-2, UniProtKB P10415) (Homo sapiens (Human), UniProt P10415) | IC50 | nM | 5.1 |
| CN1CCN(C[C@@H]2Cc3ccccc3CN2C(=O)c2cc3c(cc2-n2cc(C(=O)N(c4ccc(O)cc4)c4ccc5c(ccn5C)c4)c4ccccc42)OCO3)CC1 | Bcl-2 protein (histag-Bcl-2, UniProtKB P10415) (Homo sapiens (Human), UniProt P10415) | IC50 | nM | 6.7 |
| Cc1cc(C(=O)N(c2ccccc2)c2ccc(O)cc2)cn1-c1cc(Cl)ccc1C(=O)N1Cc2ccccc2C[C@H]1CN1CCN(C)CC1 | Bcl-2 protein (histag-Bcl-2, UniProtKB P10415) (Homo sapiens (Human), UniProt P10415) | IC50 | nM | 7.5 |
| Cc1ccc(N(C(=O)c2cn(-c3cc4c(cc3C(=O)N3Cc5ccccc5C[C@H]3CN3CCN(C)CC3)OCO4)c3ccccc23)c2ccc(O)c(Cl)c2)cc1 [Example 63, hydrochloride] | Bcl-2 protein (histag-Bcl-2, UniProtKB P10415) (Homo sapiens (Human), UniProt P10415) | IC50 | nM | 168 |
| Cc1cc(C(=O)N(c2ccc(O)cc2)c2ccc(O)cc2)cn1-c1cc(Cl)ccc1C(=O)N1Cc2ccccc2C[C@H]1CN1CCN(C)CC1 | Bcl-2 protein (histag-Bcl-2, UniProtKB P10415) (Homo sapiens (Human), UniProt P10415) | IC50 | nM | 5.9 |
| CN1CCN(C[C@@H]2Cc3ccccc3CN2C(=O)c2cc(NC(=O)CSc3ccccc3)ccc2-n2cc(C(=O)N(c3ccccc3)c3ccc(O)cc3)c3ccccc32)CC1 | Bcl-2 protein (histag-Bcl-2, UniProtKB P10415) (Homo sapiens (Human), UniProt P10415) | IC50 | nM | 22.8 |
| COc1ccc(C(=O)N2Cc3ccccc3C[C@H]2CN2CCN(C)CC2)c(-n2cc(C(=O)N(c3ccc(O)cc3)c3ccc4c(ccn4C)c3)c3ccccc32)c1 | Bcl-2 protein (histag-Bcl-2, UniProtKB P10415) (Homo sapiens (Human), UniProt P10415) | IC50 | nM | 4.3 |
| CN1CCN(C[C@@H]2Cc3ccccc3CN2C(=O)c2cc3c(cc2-n2cc(C(=O)N(c4ccc(O)c(Cl)c4)c4ccc5[nH]ccc5c4)c4ccccc42)OCO3)CC1 [Example 82, hydrochloride] | Bcl-2 protein (histag-Bcl-2, UniProtKB P10415) (Homo sapiens (Human), UniProt P10415) | IC50 | nM | 17.6 |
| Cc1ccc(N(C(=O)c2cc(C)n(-c3cc4c(cc3C(=O)N3Cc5ccccc5C[C@H]3CN3CCOCC3)OCO4)c2)c2ccc(O)cc2)cc1 [Example 106, hydrochloride] | Bcl-2 protein (histag-Bcl-2, UniProtKB P10415) (Homo sapiens (Human), UniProt P10415) | IC50 | nM | 19.6 |
| NC[C@@H]1Cc2ccccc2CN1C(=O)c1cc(NC(=O)COc2ccccc2)ccc1-n1nc(C(=O)N(c2ccccc2)c2ccccc2)c2ccccc21 | Bcl-2 protein (histag-Bcl-2, UniProtKB P10415) (Homo sapiens (Human), UniProt P10415) | IC50 | nM | 35 |
| COc1ccc(C(=O)N2Cc3ccccc3C[C@H]2CN2CCN(C)CC2)c(-n2cc(C(=O)N(c3ccccc3)c3ccc(O)cc3)c3ccccc32)c1 [Example 168, dihydrochloride] | Bcl-2 protein (histag-Bcl-2, UniProtKB P10415) (Homo sapiens (Human), UniProt P10415) | IC50 | nM | 11.4 |
| CN(C)C[C@@H]1Cc2ccccc2CN1C(=O)c1cc2c(cc1-n1cc(C(=O)N(c3ccccc3)c3ccc(O)cc3)c3ccccc31)OCO2 [Example 180, hydrochloride] | Bcl-2 protein (histag-Bcl-2, UniProtKB P10415) (Homo sapiens (Human), UniProt P10415) | IC50 | nM | 11 |
| CN1CCN(C[C@@H]2Cc3ccccc3CN2C(=O)c2cc3c(cc2-n2cc(C(=O)N(c4ccc(O)cc4)c4ccc(F)cc4)c4ccccc42)OCO3)CC1 | Bcl-2 protein (histag-Bcl-2, UniProtKB P10415) (Homo sapiens (Human), UniProt P10415) | IC50 | nM | 3.5 |
